Record: IC50 reported on urease from Canavalin ensiformis (jack bean) (Canavalia ensiformis).
Sequence (P07374 whole entry, looked up): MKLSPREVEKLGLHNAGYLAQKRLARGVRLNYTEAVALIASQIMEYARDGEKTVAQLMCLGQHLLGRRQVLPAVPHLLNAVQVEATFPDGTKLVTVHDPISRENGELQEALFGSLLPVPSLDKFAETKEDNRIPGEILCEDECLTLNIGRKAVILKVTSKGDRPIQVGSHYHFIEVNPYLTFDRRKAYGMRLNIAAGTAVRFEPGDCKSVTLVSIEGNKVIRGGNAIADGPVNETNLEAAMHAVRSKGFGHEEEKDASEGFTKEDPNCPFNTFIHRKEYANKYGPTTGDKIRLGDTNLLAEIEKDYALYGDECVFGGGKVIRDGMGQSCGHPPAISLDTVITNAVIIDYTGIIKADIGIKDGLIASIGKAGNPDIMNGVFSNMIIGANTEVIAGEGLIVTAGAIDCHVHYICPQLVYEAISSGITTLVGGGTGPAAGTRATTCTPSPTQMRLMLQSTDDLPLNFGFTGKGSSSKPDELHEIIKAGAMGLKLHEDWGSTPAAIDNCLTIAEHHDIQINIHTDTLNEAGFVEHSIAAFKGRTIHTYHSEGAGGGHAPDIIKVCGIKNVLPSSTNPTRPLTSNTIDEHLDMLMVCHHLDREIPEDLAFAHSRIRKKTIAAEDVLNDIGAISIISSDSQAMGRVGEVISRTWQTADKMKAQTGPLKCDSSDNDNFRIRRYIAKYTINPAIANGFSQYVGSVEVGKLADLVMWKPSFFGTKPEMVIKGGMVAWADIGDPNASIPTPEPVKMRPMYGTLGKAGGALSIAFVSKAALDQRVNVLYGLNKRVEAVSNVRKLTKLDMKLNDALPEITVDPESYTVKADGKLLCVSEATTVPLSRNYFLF
Number only, in µM; omit the unit.

Exercise: Identify measured IC50 corresponding to `O=C(O)c1cc(O)c(O)c(O)c1`
Key: 635

Exercise: Identify measured IC50 corresponding to `C[C@@H]1O[C@@H](OC[C@H]2O[C@@H](Oc3c(-c4ccc(O)c(O)c4)oc4cc(O)cc(O)c4c3=O)[C@H](O)[C@@H](O)[C@@H]2O)[C@H](O)[C@H](O)[C@H]1O`
Key: 780
